System: MV-4-11 cells
Assay: Cell viability assay (CellTiter-Glo), MV-4-11 proliferation
Assay type: cell-based
Details: Homo sapiens, MV4-11, 72 h; compound at 10 μM; 3 days
Measurement label: inhibition at 10 µM (%)
Output spec: scalar in %, unitless text.

Given the compound N#Cc1ccc2c(c1OCc1ccc(CN3CCOCC3)cc1)CN([C@H]1CCCC(=O)NC1=O)C2=O and test system MV-4-11 cells, the measured inhibition at 10 µM is 0

Given the compound O=C1CCC[C@H](N2Cc3c(OCc4cccc(CN5CCOCC5)c4)cccc3C2=O)C(=O)N1 and test system MV-4-11 cells, the measured inhibition at 10 µM is 35

Given the compound NCc1ccc(COc2cccc3c2CN([C@H]2CCCC(=O)NC2=O)C3=O)cc1 and test system MV-4-11 cells, the measured inhibition at 10 µM is 3

Given the compound Cc1cnc(Nc2ccc(OCCCNCC(=O)NCc3ccc(COc4cccc5c4CN([C@H]4CCC(=O)NC4=O)C5=O)cc3)cc2)nc1Nc1cccc(S(=O)(=O)NC(C)(C)C)c1 and test system MV-4-11 cells, the measured inhibition at 10 µM is 80

Given the compound Cc1cnc(Nc2ccc(OCCCNC(=O)NCc3ccc4c(c3OCc3ccc(CN5CCOCC5)cc3)CN([C@H]3CCC(=O)NC3=O)C4=O)cc2)nc1Nc1cccc(S(=O)(=O)NC(C)(C)C)c1 and test system MV-4-11 cells, the measured inhibition at 10 µM is 79

Given the compound O=C1CCC[C@H](N2Cc3c(OCc4ccc(CN5CCOCC5)cc4)cc(F)cc3C2=O)C(=O)N1 and test system MV-4-11 cells, the measured inhibition at 10 µM is 0

Given the compound NCc1ccc2c(c1OCc1ccc(CN3CCOCC3)cc1)CN([C@H]1CCCC(=O)NC1=O)C2=O and test system MV-4-11 cells, the measured inhibition at 10 µM is 4

----------
Test system: MV-4-11 cells
Test: Cell viability assay (CellTiter-Glo), MV-4-11 proliferation
Type: cell-based
Conditions: Homo sapiens, MV4-11, 72 h; compound at 1 μM; 3 days
Procedure: Molm-13 and MV-4-11 cells were cultivated in RPMI-1640 (10% FBS/1% pen-strep) and were plated in white walled 96-well plates at 20,000 cells/well. Cells were treated with compound at the indicated concentration or DMSO (control) and the cultures were incubated for 3 days at 37° C. and 5% CO2. […] Following a 10 min incubation with shaking, luminescence was measured using a Victor Wallac Luminometer.
Measurement label: inhibition at 1 µM (%)
Output spec: scalar in %, unitless text.

Given the compound Cc1cnc(Nc2ccc(OCCCNCC(=O)NCc3ccc(COc4cccc5c4CN([C@H]4CCCC(=O)NC4=O)C5=O)cc3)cc2)nc1Nc1cccc(S(=O)(=O)NC(C)(C)C)c1 and test system MV-4-11 cells, the measured inhibition at 1 µM is 0

Given the compound O=C1COC[C@H](N2Cc3c(OCc4ccc(CN5CCOCC5)cc4)cccc3C2=O)C(=O)N1 and test system MV-4-11 cells, the measured inhibition at 1 µM is 0

Given the compound Cc1cnc(Nc2ccc(OCCCNCC(=O)NCc3ccc(COc4cccc5c4CN([C@H]4CCC(=O)NC4=O)C5=O)cc3)cc2)nc1Nc1cccc(S(=O)(=O)NC(C)(C)C)c1 and test system MV-4-11 cells, the measured inhibition at 1 µM is 44

Given the compound Cc1cnc(Nc2ccc(OCCCNCC(=O)NCc3ccc(COc4cc(F)cc5c4CN([C@H]4CCCC(=O)NC4=O)C5=O)cc3)cc2)nc1Nc1cccc(S(=O)(=O)NC(C)(C)C)c1 and test system MV-4-11 cells, the measured inhibition at 1 µM is 0

Given the compound NCc1ccc(COc2cccc3c2CN([C@H]2CCCC(=O)NC2=O)C3=O)cc1 and test system MV-4-11 cells, the measured inhibition at 1 µM is 1

Given the compound N#Cc1ccc2c(c1OCc1ccc(CN3CCOCC3)cc1)CN([C@H]1CCCC(=O)NC1=O)C2=O and test system MV-4-11 cells, the measured inhibition at 1 µM is 0

----------
Tested on: Molm-13 cells
Assay: Cell viability assay (CellTiter-Glo), Molm-13 proliferation
Assay type: cell-based
Settings: Homo sapiens, MOLM-13, 72 h; compound at 1 μM; 3 days
Measurement label: inhibition at 1 µM (%)
Output spec: scalar in %, unitless text.

# inhibition at 1 µM of O=C1CCC[C@H](N2Cc3c(OCc4ccc(CN5CCOc6ccccc65)cc4)cccc3C2=O)C(=O)N1 [Compound 2] = 5

# inhibition at 1 µM of O=C1CCC[C@H](N2Cc3c(OCc4ccc(CN5CCOCC5)cc4)cccc3C2=O)C(=O)N1 [Compound 1] = 15

# inhibition at 1 µM of Cc1cnc(Nc2ccc(OCCCNC(=O)NCc3ccc(COc4cccc5c4CN([C@H]4CCCC(=O)NC4=O)C5=O)cc3)cc2)nc1Nc1cccc(S(=O)(=O)NC(C)(C)C)c1 [Compound 13] = 29

----------
Test system: IL-1β
Test: PBMC assay, LPS-induced IL-1β (Meso Scale)
Format: cell-based
Details: Homo sapiens, compound at 0.1 μM, PBMCs, 100 ng/mL LPS 18-24 hrs
Measurement label: inhibition at 0.1 µM (%)
Output spec: scalar in %, unitless text.

# inhibition at 0.1 µM of O=C1CCC[C@H](N2Cc3c(OCc4ccc(CN5CCOc6ccccc65)cc4)cccc3C2=O)C(=O)N1 [Compound 2] = 72

# inhibition at 0.1 µM of O=C1CCC[C@H](N2Cc3c(OCc4ccc(C(=O)N5CCOCC5)cc4)cccc3C2=O)C(=O)N1 [Compound 8] = 73

# inhibition at 0.1 µM of Cc1cnc(Nc2ccc(OCCCNCC(=O)NCc3ccc(COc4cc(F)cc5c4CN([C@H]4CCC(=O)NC4=O)C5=O)cc3)cc2)nc1Nc1cccc(S(=O)(=O)NC(C)(C)C)c1 [Compound 25] = 0

# inhibition at 0.1 µM of O=C1CCC[C@H](N2C(=O)c3cccc(OCc4ccc(CN5CCOCC5)cc4)c3C2=O)C(=O)N1 [Compound 11] = 21

----------
Tested on: MV-4-11 cells
Assay: Cell viability assay (CellTiter-Glo), MV-4-11 proliferation
Format: cell-based
Conditions: Homo sapiens, MV4-11, 72 h; compound at 10 μM; 3 days
Measurement label: inhibition at 10 µM (%)
Output spec: scalar in %, unitless text.

# inhibition at 10 µM of O=C1CCC[C@H](N2Cc3c(OCCc4ccc(CN5CCOCC5)cc4)cccc3C2=O)C(=O)N1 = 23

# inhibition at 10 µM of Cc1cnc(Nc2ccc(OCCCNC(=O)NCc3ccc(COc4cccc5c4CN([C@H]4CCCC(=O)NC4=O)C5=O)cc3)cc2)nc1Nc1cccc(S(=O)(=O)NC(C)(C)C)c1 = 50

# inhibition at 10 µM of Cc1cnc(Nc2ccc(OCCCNCC(=O)NCc3ccc(COc4cccc5c4CN([C@H]4CCCC(=O)NC4=O)C5=O)cc3)cc2)nc1Nc1cccc(S(=O)(=O)NC(C)(C)C)c1 = 76

# inhibition at 10 µM of Cc1cnc(Nc2ccc(OCCCNCC(=O)NCc3ccc(COc4cc(F)cc5c4CN([C@H]4CCC(=O)NC4=O)C5=O)cc3)cc2)nc1Nc1cccc(S(=O)(=O)NC(C)(C)C)c1 = 90

# inhibition at 10 µM of Cc1cnc(Nc2ccc(OCCCNC(=O)NCc3ccc(COc4cc(F)cc5c4CN([C@H]4CCC(=O)NC4=O)C5=O)cc3)cc2)nc1Nc1cccc(S(=O)(=O)NC(C)(C)C)c1 = 99

# inhibition at 10 µM of O=C1CCC[C@H](N2Cc3cc(OCc4ccc(CN5CCOCC5)cc4)ccc3C2=O)C(=O)N1 = 99

# inhibition at 10 µM of Cc1cnc(Nc2ccc(OCCCNC(=O)NCc3ccc4c(c3OCc3ccc(CN5CCOCC5)cc3)CN([C@H]3CCCC(=O)NC3=O)C4=O)cc2)nc1Nc1cccc(S(=O)(=O)NC(C)(C)C)c1 = 36

# inhibition at 10 µM of O=C1CCC[C@H](N2Cc3c(OCc4ccc(CN5CCOCC5)cc4)cccc3C2=O)C(=O)N1 = 5

# inhibition at 10 µM of Cc1cnc(Nc2ccc(OCCCNCC(=O)NCc3ccc(COc4cccc5c4CN(C4CCC(=O)NC4=O)C5=O)cc3)cc2)nc1Nc1cccc(S(=O)(=O)NC(C)(C)C)c1 (stereo not drawn) = 98

# inhibition at 10 µM of O=C1CCC[C@H](N2Cc3c(OCc4ccc(C(=O)N5CCOCC5)cc4)cccc3C2=O)C(=O)N1 = 0

# inhibition at 10 µM of O=C1CCC[C@H](N2Cc3c(OCc4ccc(CN5CCOc6ccccc65)cc4)cccc3C2=O)C(=O)N1 = 16

# inhibition at 10 µM of O=C1CCC[C@H](N2Cc3c(OCc4ccc(CN5CCOCC5)c(Cl)c4)cccc3C2=O)C(=O)N1 = 20

# inhibition at 10 µM of O=C1COC[C@H](N2Cc3c(OCc4ccc(CN5CCOCC5)cc4)cccc3C2=O)C(=O)N1 = 99

# inhibition at 10 µM of Cc1cnc(Nc2ccc(OCCCNC(=O)NCc3ccc(COc4cccc5c4CN([C@H]4CCC(=O)NC4=O)C5=O)cc3)cc2)nc1Nc1cccc(S(=O)(=O)NC(C)(C)C)c1 = 88

# inhibition at 10 µM of NCc1cccc(COc2cccc3c2CN([C@H]2CCCC(=O)NC2=O)C3=O)c1 = 10

# inhibition at 10 µM of O=C1CCC[C@H](N2C(=O)c3cccc(OCc4ccc(CN5CCOCC5)cc4)c3C2=O)C(=O)N1 = 0

# inhibition at 10 µM of O=C1CCC[C@H](N2Cc3c(OCc4ccc(C5CCNCC5)cc4)cccc3C2=O)C(=O)N1 = 0

# inhibition at 10 µM of Cc1cnc(Nc2ccc(OCCCNCC(=O)NCc3ccc(COc4cc(F)cc5c4CN([C@H]4CCCC(=O)NC4=O)C5=O)cc3)cc2)nc1Nc1cccc(S(=O)(=O)NC(C)(C)C)c1 = 97
